Reported activity coefficient values are given for each entry in this list.
assay: activity coefficient (dimensionless); of the first substance listed, at infinite dilution; xn = mol fraction of the nth substance listed; conditions: 358.15 K; 101 kPa; Liquid; Chromatography; x1 = 0
Quantity name: activity coefficient

[[record]]
molecule = "C1CCOC1 [tetrahydrofuran] + CCCCCCOCn1cc[n+](COCCCCCC)c1.O=S(=O)([N-]S(=O)(=O)C(F)(F)F)C(F)(F)F"
reported_result = 0.352

[[record]]
molecule = "CCCCCC [hexane] + CCCCCCOCn1cc[n+](C)c1.O=S(=O)([N-]S(=O)(=O)C(F)(F)F)C(F)(F)F"
reported_result = 6.46

[[record]]
molecule = "C#CCCCCC [1-heptyne] + CCCCCCOCn1cc[n+](C)c1.O=S(=O)([N-]S(=O)(=O)C(F)(F)F)C(F)(F)F"
reported_result = 2.48

[[record]]
molecule = "CCc1ccccc1 [ethylbenzene] + CCCCCCOCn1cc[n+](COCCCCCC)c1.O=S(=O)([N-]S(=O)(=O)C(F)(F)F)C(F)(F)F"
reported_result = 0.962

[[record]]
molecule = "Cc1ccccc1 [toluene] + CCCCCCOCn1cc[n+](C)c1.O=S(=O)([N-]S(=O)(=O)C(F)(F)F)C(F)(F)F"
reported_result = 1.1

[[record]]
molecule = "CCO [ethanol] + CCCCCCOCn1cc[n+](C)c1.O=S(=O)([N-]S(=O)(=O)C(F)(F)F)C(F)(F)F"
reported_result = 0.952

[[record]]
molecule = "C1CCCC1 [cyclopentane] + CCCCCCOCn1cc[n+](C)c1.O=S(=O)([N-]S(=O)(=O)C(F)(F)F)C(F)(F)F"
reported_result = 3.27


----------
test: activity coefficient (dimensionless); of the first substance listed, at infinite dilution; xn = mol fraction of the nth substance listed; conditions: 298.15 K; 101 kPa; Liquid; Chromatography; x1 = 0
Let's look at some molecules and their measured activity coefficient.
Quantity name: activity coefficient

[[record]]
molecule = "C1CCCCCC1 [cycloheptane] + CCCCCCOCn1cc[n+](COCCCCCC)c1.O=S(=O)([N-]S(=O)(=O)C(F)(F)F)C(F)(F)F"
reported_result = 2.71

[[record]]
molecule = "C#CCCC [1-pentyne] + CCCCCCOCn1cc[n+](C)c1.O=S(=O)([N-]S(=O)(=O)C(F)(F)F)C(F)(F)F"
reported_result = 1.54

[[record]]
molecule = "C#CCCCCC [1-heptyne] + CCCCCCOCn1cc[n+](COCCCCCC)c1.O=S(=O)([N-]S(=O)(=O)C(F)(F)F)C(F)(F)F"
reported_result = 1.37

[[record]]
molecule = "c1ccsc1 [thiophene] + CCCCCCOCn1cc[n+](C)c1.O=S(=O)([N-]S(=O)(=O)C(F)(F)F)C(F)(F)F"
reported_result = 0.743

[[record]]
molecule = "CCCCCCCC [octane] + CCCCCCOCn1cc[n+](COCCCCCC)c1.O=S(=O)([N-]S(=O)(=O)C(F)(F)F)C(F)(F)F"
reported_result = 4.8

[[record]]
molecule = "CCOCC [diethyl ether] + CCCCCCOCn1cc[n+](C)c1.O=S(=O)([N-]S(=O)(=O)C(F)(F)F)C(F)(F)F"
reported_result = 1.35

[[record]]
molecule = "CCCO [propan-1-ol] + CCCCCCOCn1cc[n+](COCCCCCC)c1.O=S(=O)([N-]S(=O)(=O)C(F)(F)F)C(F)(F)F"
reported_result = 1.31

[[record]]
molecule = "CCCOCCC [dipropyl ether] + CCCCCCOCn1cc[n+](C)c1.O=S(=O)([N-]S(=O)(=O)C(F)(F)F)C(F)(F)F"
reported_result = 2.92

[[record]]
molecule = "C1CCCC1 [cyclopentane] + CCCCCCOCn1cc[n+](C)c1.O=S(=O)([N-]S(=O)(=O)C(F)(F)F)C(F)(F)F"
reported_result = 4.19

[[record]]
molecule = "C#CCCCC [1-hexyne] + CCCCCCOCn1cc[n+](COCCCCCC)c1.O=S(=O)([N-]S(=O)(=O)C(F)(F)F)C(F)(F)F"
reported_result = 1.16

[[record]]
molecule = "C#CCCC [1-pentyne] + CCCCCCOCn1cc[n+](COCCCCCC)c1.O=S(=O)([N-]S(=O)(=O)C(F)(F)F)C(F)(F)F"
reported_result = 0.992

[[record]]
molecule = "CC(C)=O [acetone] + CCCCCCOCn1cc[n+](COCCCCCC)c1.O=S(=O)([N-]S(=O)(=O)C(F)(F)F)C(F)(F)F"
reported_result = 0.262

[[record]]
molecule = "C=CCCCCCC [oct-1-ene] + CCCCCCOCn1cc[n+](COCCCCCC)c1.O=S(=O)([N-]S(=O)(=O)C(F)(F)F)C(F)(F)F"
reported_result = 3.28

[[record]]
molecule = "CCCCC [pentane] + CCCCCCOCn1cc[n+](COCCCCCC)c1.O=S(=O)([N-]S(=O)(=O)C(F)(F)F)C(F)(F)F"
reported_result = 2.78

[[record]]
molecule = "Cc1ccccc1 [toluene] + CCCCCCOCn1cc[n+](C)c1.O=S(=O)([N-]S(=O)(=O)C(F)(F)F)C(F)(F)F"
reported_result = 1.05

[[record]]
molecule = "C#CCCCCCC [1-octyne] + CCCCCCOCn1cc[n+](COCCCCCC)c1.O=S(=O)([N-]S(=O)(=O)C(F)(F)F)C(F)(F)F"
reported_result = 1.65

[[record]]
molecule = "CO [methanol] + CCCCCCOCn1cc[n+](COCCCCCC)c1.O=S(=O)([N-]S(=O)(=O)C(F)(F)F)C(F)(F)F"
reported_result = 1.17

[[record]]
molecule = "CCCO [propan-1-ol] + CCCCCCOCn1cc[n+](C)c1.O=S(=O)([N-]S(=O)(=O)C(F)(F)F)C(F)(F)F"
reported_result = 1.83

[[record]]
molecule = "CCc1ccccc1 [ethylbenzene] + CCCCCCOCn1cc[n+](COCCCCCC)c1.O=S(=O)([N-]S(=O)(=O)C(F)(F)F)C(F)(F)F"
reported_result = 0.967

[[record]]
molecule = "C=CCCCCC [1-heptene] + CCCCCCOCn1cc[n+](COCCCCCC)c1.O=S(=O)([N-]S(=O)(=O)C(F)(F)F)C(F)(F)F"
reported_result = 2.7

[[record]]
molecule = "C#CCCCCCC [1-octyne] + CCCCCCOCn1cc[n+](C)c1.O=S(=O)([N-]S(=O)(=O)C(F)(F)F)C(F)(F)F"
reported_result = 3.15

[[record]]
molecule = "C=CCCCC [hex-1-ene] + CCCCCCOCn1cc[n+](C)c1.O=S(=O)([N-]S(=O)(=O)C(F)(F)F)C(F)(F)F"
reported_result = 4.89

[[record]]
molecule = "C1CCCCC1 [cyclohexane] + CCCCCCOCn1cc[n+](COCCCCCC)c1.O=S(=O)([N-]S(=O)(=O)C(F)(F)F)C(F)(F)F"
reported_result = 2.32

[[record]]
molecule = "CCCCC [pentane] + CCCCCCOCn1cc[n+](C)c1.O=S(=O)([N-]S(=O)(=O)C(F)(F)F)C(F)(F)F"
reported_result = 7.34

[[record]]
molecule = "CCCCCCC [heptane] + CCCCCCOCn1cc[n+](COCCCCCC)c1.O=S(=O)([N-]S(=O)(=O)C(F)(F)F)C(F)(F)F"
reported_result = 3.94

[[record]]
molecule = "COC(C)(C)C [2-methoxy-2-methylpropane] + CCCCCCOCn1cc[n+](COCCCCCC)c1.O=S(=O)([N-]S(=O)(=O)C(F)(F)F)C(F)(F)F"
reported_result = 0.759

[[record]]
molecule = "c1ccsc1 [thiophene] + CCCCCCOCn1cc[n+](COCCCCCC)c1.O=S(=O)([N-]S(=O)(=O)C(F)(F)F)C(F)(F)F"
reported_result = 0.578


----------
assay: activity coefficient (dimensionless); of the first substance listed, at infinite dilution; xn = mol fraction of the nth substance listed; conditions: 348.15 K; 101 kPa; Liquid; Chromatography; x1 = 0
Values of activity coefficient strictly less than 2 map to True, and values of at least 2 map to False.

[[record]]
compound = "CCCCCCCC [octane] + CCCCCCOCn1cc[n+](COCCCCCC)c1.O=S(=O)([N-]S(=O)(=O)C(F)(F)F)C(F)(F)F"
answer_label = "False"

[[record]]
compound = "CCCOCCC [dipropyl ether] + CCCCCCOCn1cc[n+](COCCCCCC)c1.O=S(=O)([N-]S(=O)(=O)C(F)(F)F)C(F)(F)F"
answer_label = "True"

[[record]]
compound = "C=CCCC [1-pentene] + CCCCCCOCn1cc[n+](C)c1.O=S(=O)([N-]S(=O)(=O)C(F)(F)F)C(F)(F)F"
answer_label = "False"

[[record]]
compound = "C=CCCCCC [1-heptene] + CCCCCCOCn1cc[n+](C)c1.O=S(=O)([N-]S(=O)(=O)C(F)(F)F)C(F)(F)F"
answer_label = "False"

[[record]]
compound = "CCO [ethanol] + CCCCCCOCn1cc[n+](C)c1.O=S(=O)([N-]S(=O)(=O)C(F)(F)F)C(F)(F)F"
answer_label = "True"

[[record]]
compound = "C=CCCCCCC [oct-1-ene] + CCCCCCOCn1cc[n+](C)c1.O=S(=O)([N-]S(=O)(=O)C(F)(F)F)C(F)(F)F"
answer_label = "False"

[[record]]
compound = "CO [methanol] + CCCCCCOCn1cc[n+](COCCCCCC)c1.O=S(=O)([N-]S(=O)(=O)C(F)(F)F)C(F)(F)F"
answer_label = "True"

[[record]]
compound = "Cc1ccc(C)cc1 [1,4-dimethylbenzene] + CCCCCCOCn1cc[n+](C)c1.O=S(=O)([N-]S(=O)(=O)C(F)(F)F)C(F)(F)F"
answer_label = "True"

[[record]]
compound = "O [water] + CCCCCCOCn1cc[n+](COCCCCCC)c1.O=S(=O)([N-]S(=O)(=O)C(F)(F)F)C(F)(F)F"
answer_label = "False"

[[record]]
compound = "Cc1cccc(C)c1 [1,3-dimethylbenzene] + CCCCCCOCn1cc[n+](COCCCCCC)c1.O=S(=O)([N-]S(=O)(=O)C(F)(F)F)C(F)(F)F"
answer_label = "True"

[[record]]
compound = "C1CCOC1 [tetrahydrofuran] + CCCCCCOCn1cc[n+](COCCCCCC)c1.O=S(=O)([N-]S(=O)(=O)C(F)(F)F)C(F)(F)F"
answer_label = "True"

[[record]]
compound = "CCCCCCCC [octane] + CCCCCCOCn1cc[n+](C)c1.O=S(=O)([N-]S(=O)(=O)C(F)(F)F)C(F)(F)F"
answer_label = "False"

[[record]]
compound = "CCCOCCC [dipropyl ether] + CCCCCCOCn1cc[n+](C)c1.O=S(=O)([N-]S(=O)(=O)C(F)(F)F)C(F)(F)F"
answer_label = "False"

[[record]]
compound = "CCCCCCCCC [nonane] + CCCCCCOCn1cc[n+](C)c1.O=S(=O)([N-]S(=O)(=O)C(F)(F)F)C(F)(F)F"
answer_label = "False"

[[record]]
compound = "C#CCCCCCC [1-octyne] + CCCCCCOCn1cc[n+](C)c1.O=S(=O)([N-]S(=O)(=O)C(F)(F)F)C(F)(F)F"
answer_label = "False"

[[record]]
compound = "c1ccccc1 [benzene] + CCCCCCOCn1cc[n+](C)c1.O=S(=O)([N-]S(=O)(=O)C(F)(F)F)C(F)(F)F"
answer_label = "True"

[[record]]
compound = "C=CCCCCCC [oct-1-ene] + CCCCCCOCn1cc[n+](COCCCCCC)c1.O=S(=O)([N-]S(=O)(=O)C(F)(F)F)C(F)(F)F"
answer_label = "False"

[[record]]
compound = "Cc1ccccc1 [toluene] + CCCCCCOCn1cc[n+](COCCCCCC)c1.O=S(=O)([N-]S(=O)(=O)C(F)(F)F)C(F)(F)F"
answer_label = "True"

[[record]]
compound = "CCCCCCCCCC [decane] + CCCCCCOCn1cc[n+](COCCCCCC)c1.O=S(=O)([N-]S(=O)(=O)C(F)(F)F)C(F)(F)F"
answer_label = "False"

[[record]]
compound = "C#CCCC [1-pentyne] + CCCCCCOCn1cc[n+](COCCCCCC)c1.O=S(=O)([N-]S(=O)(=O)C(F)(F)F)C(F)(F)F"
answer_label = "True"

[[record]]
compound = "C#CCCC [1-pentyne] + CCCCCCOCn1cc[n+](C)c1.O=S(=O)([N-]S(=O)(=O)C(F)(F)F)C(F)(F)F"
answer_label = "True"

[[record]]
compound = "Cc1ccccc1C [1,2-dimethylbenzene] + CCCCCCOCn1cc[n+](COCCCCCC)c1.O=S(=O)([N-]S(=O)(=O)C(F)(F)F)C(F)(F)F"
answer_label = "True"

